Target: GlyT-1 (Rattus norvegicus, UniProt P28572)
Construct: the tissues of whole brains or each specific brain region were homogenized; from tissue; host or cells: rat brain (whole brain or dissected regions; male Crl:CD (SD) rats)
Sequence (P28572 1-638): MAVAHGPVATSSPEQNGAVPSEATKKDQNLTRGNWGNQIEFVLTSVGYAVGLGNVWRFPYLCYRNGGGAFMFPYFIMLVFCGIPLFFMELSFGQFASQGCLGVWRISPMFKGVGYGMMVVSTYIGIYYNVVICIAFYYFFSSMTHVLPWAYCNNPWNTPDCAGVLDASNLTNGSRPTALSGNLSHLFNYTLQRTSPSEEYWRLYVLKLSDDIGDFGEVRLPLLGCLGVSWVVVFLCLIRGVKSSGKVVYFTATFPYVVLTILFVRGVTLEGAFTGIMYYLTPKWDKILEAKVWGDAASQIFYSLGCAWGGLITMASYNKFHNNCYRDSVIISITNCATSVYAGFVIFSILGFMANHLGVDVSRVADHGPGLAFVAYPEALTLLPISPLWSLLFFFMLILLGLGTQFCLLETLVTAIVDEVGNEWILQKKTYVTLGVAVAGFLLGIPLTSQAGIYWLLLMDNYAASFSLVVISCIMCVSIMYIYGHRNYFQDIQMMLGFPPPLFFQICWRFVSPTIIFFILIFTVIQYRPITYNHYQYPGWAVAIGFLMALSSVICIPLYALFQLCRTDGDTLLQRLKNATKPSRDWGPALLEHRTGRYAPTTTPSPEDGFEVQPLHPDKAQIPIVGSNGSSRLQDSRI
Test: Drug inhibition of [3H]CHIBA-3007 binding to rat brain membranes
Conditions: [3H]CHIBA-3007 (1 nM), 120 min room temperature, mean ± S.E.M., n=3
pKi: −log10 of the molar value.
Collected pKi values appear next to each entry.
ENDPOINT_LABEL: pKi

| MOLECULE | ENDPOINT_LABEL | OBSERVED_MEASUREMENT |
| --- | --- | --- |
| O=C(N[C@@H](c1ccsc1)[C@H]1CCCCN1)c1nccc(C(F)(F)F)c1Cl | pKi | 7.44 |
| O=C(N[C@@H](c1cccc(-c2cn[nH]c2)c1)[C@H]1CCCCN1)c1nccc(C(F)(F)F)c1Cl | pKi | 8.66 |
| CN(CC[C@@H](Oc1ccc(C(F)(F)F)cc1)c1ccccc1)CC(=O)O (racemic) | pKi | 7.77 |
| N[C@@H](COC(c1cccc(F)c1)c1ccccc1OCc1ccccc1)C(=O)O (stereo partly drawn) | pKi | 6.07 |
| CN1CCCC[C@@H]1[C@@H](NC(=O)c1nccc(C(F)(F)F)c1Cl)c1ccsc1 | pKi | 8.55 |
| O=C(N[C@@H](c1ccccc1)[C@@H]1CCCCN1)c1cccc(C(F)(F)F)c1Cl | pKi | 7.61 |
| CNCC(=O)O | pKi | 3.99 |
| CN(CCC(Oc1ccc(-c2ccccc2)cc1)c1ccc(F)cc1)CC(=O)O (stereo not drawn) | pKi | 8.39 |
| CN(CCOc1ccc(-c2ccc3c(c2)OCO3)cc1C(C)(C)C)CC(=O)O | pKi | 7.79 |

###

Molecular target: GlyT-1 (Rattus norvegicus, UniProt P28572)
Construct: the tissues of whole brains or each specific brain region were homogenized; from tissue; host or cells: rat brain (whole brain or dissected regions; male Crl:CD (SD) rats)
Test: Equilibrium saturation binding of [3H]CHIBA-3007 to rat brain membranes
Conditions: room temperature, 0.3125–10 nM radioligand, n=3, read-out: Kd (apparent equilibrium dissociation constant)

| MOLECULE | Kd [nM] |
| --- | --- |
| CN1CCCC[C@@H]1[C@@H](NC(=O)c1nccc(C(F)(F)F)c1Cl)c1ccsc1 [[^3H]CHIBA-3007] | 1.61 |
